Ref: ChEMBL document CHEMBL3739361

Kindly supply the reported mortality at 80 µg/mL values for the records listed here.
Tested on: Paramphistomum
Experiment: Antihelmintic activity against rumen flukes assessed as mortality at 80 ug/ml after 4 hrs relative to control
Format: functional
Provide only the numeric value, understood in %.

-- ask What does the data say about its mortality at 80 µg/mL? Entry: COC(=O)Nc1nc2ccc(OCC(=O)N/N=C/c3ccc([N+](=O)[O-])cc3)cc2s1 (mixture of isomers)
-- reply 20

-- ask Request: COC(=O)Nc1nc2ccc(OCC(=O)N/N=C/c3ccccc3OC(=O)OC)cc2s1 (mixture of isomers)
-- reply 20

-- ask Request: COC(=O)Nc1nc2ccc(OCC(=O)N/N=C(\C)c3ccccc3)cc2s1 (mixture of isomers)
-- reply 20

-- ask Request: COC(=O)Nc1nc2ccc(OCC(=O)N/N=C(\C)c3ccc(Cl)cc3)cc2s1 (mixture of isomers)
-- reply 50

-- ask Request: COC(=O)Nc1nc2ccc(OCC(=O)N/N=C/c3ccc(Cl)cc3)cc2s1 (mixture of isomers)
-- reply 50

-- ask Request: COC(=O)Nc1nc2ccc(OCC(=O)N/N=C(\C)c3ccc(C)cc3)cc2s1 (mixture of isomers)
-- reply 20

-- ask Request: CC(=O)Nc1nc2ccc(OCC3=NN(C(C)=O)C(c4ccc([N+](=O)[O-])cc4)O3)cc2s1 (stereo not drawn)
-- reply 70

-- ask Request: CC(=O)Nc1nc2ccc(OCC3=NN(C(C)=O)C(c4ccc(Cl)cc4)O3)cc2s1 (stereo not drawn)
-- reply 80

----------
System: Paramphistomum
Test: Antihelmintic activity against rumen flukes assessed as mortality at 80 ug/ml after 4 hrs relative to control
Assay type: functional
Kindly supply the reported mortality at 80 µg/mL values for the records listed here.
Provide only the numeric value, understood in %.

-- ask What does the data say about its mortality at 80 µg/mL? Entry: COC(=O)Nc1nc2ccc(OCC(=O)N/N=C/c3ccccc3)cc2s1 (mixture of isomers)
-- reply 20

-- ask Request: COC(=O)Nc1nc2ccc(OCC(=O)NNS(=O)(=O)c3ccc(C)cc3)cc2s1
-- reply 30

-- ask Request: COC(=O)Nc1nc2ccc(OCC(=O)NNS(=O)(=O)c3ccccc3)cc2s1
-- reply 40

-- ask Request: COC(=O)NNC(=O)COc1ccc2nc(NC(=O)OC)sc2c1
-- reply 70

-- ask Request: COC(=O)Nc1nc2ccc(OCC(=O)N/N=C/c3ccco3)cc2s1
-- reply 60

-- ask Request: CC(=O)Nc1nc2ccc(OCC3=NN(C(C)=O)C(c4ccccc4)O3)cc2s1 (configuration not stated)
-- reply 10

-- ask Request: COC(=O)Nc1nc2ccc(OCC(=O)N/N=C(\C)c3ccc(Br)cc3)cc2s1 (mixture of isomers)
-- reply 30
